The reported numbers originate from patent US8003689B2.

Assay: Metabolic stability in human liver microsomes
Format: in vitro ADME
Conditions: Human Liver Microsomes, Phase I
readout-label: microsomal CLint

Recorded microsomal CLint of C[C@](O)(COc1ccc(C#N)cc1)C(=O)Nc1ccc(C#N)c(C(F)(F)F)c1 [Compound I] , please.
< 1000 µL/min/mg

###

Assay: Permeability and efflux potential across Caco-2 monolayers
Parameters: dose or concentration left out as unconfirmed
Settings: human, Caco-2
readout-label: Papp B→A

Recorded Papp B→A of C[C@](O)(COc1ccc(C#N)cc1)C(=O)Nc1ccc(C#N)c(C(F)(F)F)c1 [Compound I] , please.
29 ×10⁻⁶ cm/s

###

Test: Metabolic stability in primary monkey hepatocytes
Type: in vitro ADME
readout-label: CLint scaled

Recorded CLint scaled of `C[C@](O)(COc1ccc(C#N)cc1)C(=O)Nc1ccc(C#N)c(C(F)(F)F)c1` , please.
< 1 mL/min/kg

###

Test: Permeability and efflux potential across Caco-2 monolayers
Parameters: dose or concentration left out as unconfirmed
Conditions: human, Caco-2, Permeability Classification, classified from Papp (A-B)
readout-label: Papp A→B

Recorded Papp A→B of C[C@](O)(COc1ccc(C#N)cc1)C(=O)Nc1ccc(C#N)c(C(F)(F)F)c1 [Compound I] , please.
> 100 nm/s
